molecular target: T1, human tissue factor (TF) on MDA-MB-231, NCI-H358 and HCT116 cells (human, UniProt P13726 33-295); experiment: flow cytometry on MDA-MB-231 cells
T1 construct: whole, on cells; also called TF antigen; CD142
Quantity Name: pEC50
Just the number, please; pEC50 means minus log10 of the concentration in mol/L.

hu10H10-1 (antibody, V domains shown, H1+L1; Full-length IgG) VH: EVQLVQSGAEVKKPGASVKVSCKASGYTFITYWIEWVRQRPGQGLEWMGDILPGSGSTNYNENFKGRVTFTADTSTSTVYMQLSSLRSEDTAVYYCARSGYYGNSGFAYWGQGTLVTVSS VL: DIQMTQSPSSLSASVGDRVTITCKSSQSLLSSGNQKNYLTWYQQKPGKAPKLLIYWASTRESGVPSRFSGSGSGTDFTLTISSLQPEDFATYYCQNDYTYPLTFGQGTKLEIK :: 8.69
chimeric antibody CH67 (antibody, human IgG1, kappa, V domains shown, Murine 67# variable regions + human constant regions) VH: QVQLKQSGPGLVQPSQSLSITCIVSGFSLTNYGVNWVRQSPRKGLEWLGVIWSRGNTDYNAAFISRLIISKDNSKSQVFLKMNRLQADDTAIYYCARKDAVVATDALDYWGQGTSVTVSS VL: DIVMTQSHKFMSTSLGDRVSITCKASQDVSTAVAWYQQKPGQSPKLLIYSTSYRYTGVPDRFTGSGSGTDFTFTISSVQAEDLAVYYCQQHYSTPYTFGGGTKLEIKR :: 7.78

pEC50 for hu67-11 (antibody, human IgG1, kappa, V domains shown) VH: EVQLQESGPGLVKPSQTLSLTCTVSGFSLTNYGVNWIRQPPGKGLEWIGVIWSRGNTDYNAAFISRVTISKDTSKNQVSLKLSSVTAADTAVYYCARKDAVVATDALDYWGQGTTVTVSS VL: DIQMTQSPSSLSASVGDRVTITCKASQDVSTAVAWYQQKPGKAPKLLIYSTSYRYTGVPSRFSGSGSGTDFTFTISSLQPEDIATYYCQQHYSTPYTFGGGTKVEIKR is 7.58

pEC50 for hu310-6 (antibody, human IgG1, kappa, V domains shown) VH: EVQLVQSGAEVKKPGASVKVSCKASGYSFTGYYMNWVRQAPGQGLEWMGEINPSTGGSTYNQKFKARVTMTVDQSTSTVYMELSSLRSEDTAVYYCARRELGGPFGYWGQGTTVTVSS VL: SIQMTQSPSSLSASVGDRVTITCKASQSVSQGIAWYQQKPGKSPKLLIYFASNRYTGVPSRFSGSGYGTDFTFTISSLQPEDIATYYCQQDYSSPWTFGGGTKVEIKR is 8.59
